B1: P2RY14 (parent)
chain: KKIFKSHLKSSRNSTSVKKKSSRN

Variants of: B1
TEST METHOD NOTES: protein stability index of a GFP-peptide fusion (GPS, HEK-293T) (PSI 1-6); higher = more stable;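 note: lentivirally expressed fusions sorted by FACS into six bins by GFP to DsRed ratio, PSI derived from sequencing read proportions per bin multiplied by bin number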
ASSAY SETUP: c terminus: a fixed tail appended
Give protein stability index for every item shown.
Reply: number alone, nothing else.

Just so you know, measured protein stability index for `KKIFKSHLLSSRNSTSVKKKSSRN` came out at 4.05

// protein stability index value for `KKIFKSHLKSKRNSTSVKKKSSRN` : 3.89

Documented protein stability index of `KKIFKSHLKSSRNSTSVEKKSSRN` : 3.98

protein stability index in this record for `KKIFKSHMKSSRNSTSVKKKSSRN` : 4.11

protein stability index for `KKIFKSHWKSSRNSTSVKKKSSRN` is 3.95

Entry under test: `KKIFESHLKSSRNSTSVKKKSSRN` . Its protein stability index was 3.89

Lookup result for `KKIFKSHLKSSRNSTDVKKKSSRN` ; measured protein stability index: 4.08

`KQIFKSHLKSSRNSTSVKKKSSRN` has a reported protein stability index of 4.04

variant `KKIFKSHLKMSRNSTSVKKKSSRN` , protein stability index observed: 4.01
